system: Blood; assay: Inhibition of PGE2 production in LPS-induced human whole blood; assay type: functional, tissue-based
readout: IC50 (nM)

In [3]: df
Out[3]:
                           structure_smiles  readout  units  readout_number
0  O=C(Oc1ccc(OCc2ccccc2)cc1)N(Nc1cccc(Cl)c1)S(=O)(=O)c1ccc(Cl)cc1     IC50     nM             428
